The entries below are paired with their reported log2FC of plasma level.
- run_description: Common metabolites in rat plasma by GC-MS/MS after polyI:C and/or maoto
- Assay type: in vivo
- condition_info: M/C (maoto vs control), 2h

molecule: NC(N)=O
log2FC of plasma level: -0.01
--
molecule: O=C[C@H](O)[C@H](O)[C@H](O)CO
log2FC of plasma level: 0.05
--
molecule: NCC(=O)O
log2FC of plasma level: -0.10
--
molecule: O=C(O)Cc1cc(O)ccc1O
log2FC of plasma level: -0.05
--
molecule: O=C(CO)C(O)C(O)CO (centres unmarked)
log2FC of plasma level: 0.01

Each recorded value in this set is attributed to paper PMC5654968.
